experimentalSystem: GST-Rok (full length) (Bacillus subtilis subsp. subtilis str. …, UniProt O34857 1-191)
Sequence: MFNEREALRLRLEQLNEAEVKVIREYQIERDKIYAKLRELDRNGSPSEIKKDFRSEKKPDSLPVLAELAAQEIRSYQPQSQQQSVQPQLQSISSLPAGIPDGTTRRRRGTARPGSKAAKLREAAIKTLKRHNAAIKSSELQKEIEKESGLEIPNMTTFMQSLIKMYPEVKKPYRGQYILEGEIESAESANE
assayInfo: protein binding microarray; Rok is a gene silencer of Bacillus subtilis; high values mean tight binding
details: protein: recombinant; tags: GST (pTH5325, pDEST15-Magic modified); dsDNA, one strand shown
Whole data set: some 33,000 sequences, median “e-score” near -0.037, cut for the highest 2% near 0.34. The sample as a whole holds a higher share of the highest values than the screen did.
measureName: binding signal (E-score)

INSERT INTO measurements (seq, measurename, reportedmeasurement) VALUES
  ('AAGGTTGT', 'binding signal', -0.00326),
  ('CCATATAG', 'binding signal', 0.0758),
  ('AGAAAAAG', 'binding signal', 0.0648),
  ('AATACTAT', 'binding signal', 0.359),
  ('CTATATAG', 'binding signal', 0.402),
  ('AGTTTCTC', 'binding signal', 0.274),
  ('AGACCGTC', 'binding signal', -0.193),
  ('GAGAACAA', 'binding signal', -0.119),
  ('AATTAGTA', 'binding signal', 0.416);
